log10 of MIC reference
- System: Staphylococcus aureus
- Method Description: Antimicrobial activity against methicillin-resistant Staphylococcus aureus by NCCLS method
- Format: functional
Assay Readout: log10 of MIC (log10 of the value in µg/mL)

- C/N=C(/NC)NCCC[C@H](N)CC(=O)N(C)C1CNC(NC(N)=O)=NC1=O (mixture of isomers): 2.41
- CCC(=O)NC1=NC(=O)C(N(C)C(=O)C[C@@H](N)CCCNC(=N)N)CN1 (mixture of isomers): 1.20
- CC(=O)NC1=NC(=O)C(N(C)C(=O)C[C@@H](N)CCCNC(=N)N)CN1 (mixture of isomers): 0.90
- CN(C(=O)C[C@@H](N)C[C@H]1CCNC1)C1CNC(NC(N)=O)=NC1=O (mixture of isomers): 1.81
- CN(C(=O)C[C@@H](N)CCCCCN)C1CNC(NC(N)=O)=NC1=O (mixture of isomers): 1.20
- CN(C(=O)C[C@@H](N)C[C@@H]1CCNC1)C1CNC(NC(N)=O)=NC1=O (mixture of isomers): 2.11
- CN(C(=O)C[C@@H](N)c1cccc(NC(=N)N)c1)C1CNC(NC(N)=O)=NC1=O (mixture of isomers): 2.41
- CN(C(=O)C[C@@H](N)C[C@H]1CCN(C(=N)N)C1)C1CNC(NC(N)=O)=NC1=O (mixture of isomers): 0.90
- CN(C)C(=N)NCCC[C@H](N)CC(=O)N(C)C1CNC(NC(N)=O)=NC1=O (mixture of isomers): 1.81
- CN(C(=O)C[C@@H](N)CCCCN)C1CN=C(NC(N)=O)NC1=O (mixture of isomers): 1.81
- CN(C(=O)C[C@@H](N)CCCN=C(N)N)C1CN=C(NC(N)=O)NC1=O (mixture of isomers): 0.90
- CN(C(=O)C[C@@H](N)CC1CCNCC1)C1CNC(NC(N)=O)=NC1=O (mixture of isomers): 1.81
- C/N=C(/N)N1CCC(C[C@H](N)CC(=O)N(C)C2CNC(NC(N)=O)=NC2=O)CC1 (mixture of isomers): 1.81
- CN(C(=O)C[C@@H](N)CCCN)C1CN=C(NC(N)=O)NC1=O (mixture of isomers): 1.81
- CN(C(=O)C[C@@H](N)C1CCN(C(=N)N)CC1)C1CNC(NC(N)=O)=NC1=O (mixture of isomers): 1.20
- CN(C(=O)C[C@@H](N)Cc1ccc(C(=N)N)cc1)C1CNC(NC(N)=O)=NC1=O (mixture of isomers): 2.71
- CN(C(=O)C[C@@H](N)CCCN/C(N)=N\O)C1CNC(NC(N)=O)=NC1=O (mixture of isomers): 1.81
- CCN(C(=O)C[C@@H](N)CCCNC(=N)N)C1CNC(NC(N)=O)=NC1=O (mixture of isomers): 2.41
- CN(C(=O)C[C@@H](N)CC1CCN(C(=N)N)CC1)C1CNC(NC(N)=O)=NC1=O (mixture of isomers): 1.20

* * *

Form field: pIC50 (one value per entry).
- Tested on: Escherichia coli
- Method Description: Inhibition of protein translation in Escherichia coli S30 cell extract
- Format: functional
pIC50: −log10 of the molar value.
Assay Readout: pIC50

- CC/N=C(/N)NCCC[C@H](N)CC(=O)N(C)C1CN=C(NC(N)=O)NC1=O (mixture of isomers): 5.62
- CC(=O)N(C)C1=NC(=O)C(N(C)C(=O)C[C@@H](N)CCCNC(=N)N)CN1 (mixture of isomers): 5.17
- CN(CC1CNC(NC(N)=O)=NC1=O)C(=O)C[C@@H](N)CCCNC(=N)N (mixture of isomers): 4.29
- CN(C(=O)C[C@@H](N)C[C@H]1CCNC1)C1CNC(NC(N)=O)=NC1=O (mixture of isomers): 5.70
